biological target: IRAK3-ePL (Homo sapiens, UniProt Q9Y616); construct: expressed in transfected cells; host or cells: 293T CRBN OE / GSPT1 G575N KI cells, lentiviral transduction, puromycin selection; assay: IRAK3-ePL Overexpressing Degradation Assay; type: cell-based; details: HEK-293T; IRAK3-ePL Lenti-X 293T CRBN/GSPT1 G575N cells, overnight incubation, top dose 10 μM; maximum percentage loss of target protein
Sequence (Q9Y616 whole entry): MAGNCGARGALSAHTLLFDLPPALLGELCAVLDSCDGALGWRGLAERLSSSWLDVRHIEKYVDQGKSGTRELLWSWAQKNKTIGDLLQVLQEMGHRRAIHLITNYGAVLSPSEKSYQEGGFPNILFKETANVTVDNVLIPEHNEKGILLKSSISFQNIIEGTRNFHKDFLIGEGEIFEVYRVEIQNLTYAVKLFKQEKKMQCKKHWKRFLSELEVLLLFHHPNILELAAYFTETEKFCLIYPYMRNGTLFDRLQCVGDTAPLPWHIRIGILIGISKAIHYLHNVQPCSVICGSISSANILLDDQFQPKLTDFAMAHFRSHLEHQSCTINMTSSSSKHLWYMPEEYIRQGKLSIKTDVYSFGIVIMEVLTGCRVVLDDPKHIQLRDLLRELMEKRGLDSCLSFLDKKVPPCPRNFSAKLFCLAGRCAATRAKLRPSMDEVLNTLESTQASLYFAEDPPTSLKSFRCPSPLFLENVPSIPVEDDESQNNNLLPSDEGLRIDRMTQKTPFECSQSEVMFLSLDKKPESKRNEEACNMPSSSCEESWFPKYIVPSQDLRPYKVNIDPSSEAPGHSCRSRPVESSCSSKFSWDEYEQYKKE
Sequence (Q96SW2 whole entry partner): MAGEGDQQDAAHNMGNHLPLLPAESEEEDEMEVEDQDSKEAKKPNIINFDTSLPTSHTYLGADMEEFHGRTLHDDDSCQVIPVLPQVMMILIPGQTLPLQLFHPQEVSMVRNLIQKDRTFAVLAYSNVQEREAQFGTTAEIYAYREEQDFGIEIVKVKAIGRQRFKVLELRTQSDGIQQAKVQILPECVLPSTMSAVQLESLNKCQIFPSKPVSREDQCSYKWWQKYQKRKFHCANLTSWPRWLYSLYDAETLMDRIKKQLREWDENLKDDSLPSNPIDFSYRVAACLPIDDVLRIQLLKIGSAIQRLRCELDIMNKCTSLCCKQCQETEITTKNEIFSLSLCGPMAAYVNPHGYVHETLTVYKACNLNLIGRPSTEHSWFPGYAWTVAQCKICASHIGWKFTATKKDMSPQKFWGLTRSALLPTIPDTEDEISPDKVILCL
Assignment: determine reported Dmax for the given molecules.
Numbers only, in %.

Molecule	Dmax, %
Cc1cccc(-c2cnc(Nc3cnn(C4CCN(C5CCC6(CC5)CCN(C(=O)c5ccc7c(c5)CN(C5CCC(=O)NC5=O)C7=O)CC6)CC4)c3)c3nccn23)c1 (stereo not drawn)	76
Cc1cccc(-c2cnc(Nc3ccc(N4CCN(CCNC(=O)COc5ccc6c(c5)C(=O)N(C5CCC(=O)NC5=O)C6=O)CC4)cc3)c3nccn23)c1 (stereo not drawn)	51
Cc1cccc(-c2cnc(Nc3ccc(N4CCN(C(=O)COc5ccc6c(c5)C(=O)N(C5CCC(=O)NC5=O)C6=O)CC4)cc3)c3nccn23)c1 (stereo not drawn)	22
Cc1cccc(-c2cnc(Nc3ccc(N4CCN(C(=O)CCCNC(=O)COc5ccc6c(c5)C(=O)N(C5CCC(=O)NC5=O)C6=O)CC4)cc3)c3nccn23)c1 (stereo not drawn)	21
Cc1cccc(-c2cnc(Nc3ccc(N4CCN(C(=O)CCOCCNC(=O)COc5cccc6c5C(=O)N(C5CCC(=O)NC5=O)C6=O)CC4)cc3)c3nccn23)c1 (stereo not drawn)	14

Then this molecule:
Return the recorded Dmax value; entry: Cc1cccc(-c2cnc(Nc3cccc(N4CCN(CCNC(=O)COc5ccc6c(c5)C(=O)N(C5CCC(=O)NC5=O)C6=O)CC4)c3)c3nccn23)c1 (stereo not drawn)
22
